Tested on: UACC-62 melanoma
Assay: NCI tumour cell line growth inhibition, 48 h
Measurement Kind: GI50

# count of solved cases: 5
O=C1NC(=O)C(c2cccc([N+](=O)[O-])c2)=C1Nc1cc(Cl)c(O)c(Cl)c1	> 20800 nM
O=S(=O)(Nc1ccc(F)cc1F)c1ccc(-c2cnc(C3CC3)o2)cc1	358 nM
Cc1cc(C)c(/C=C2\C(=O)Nc3ccc(NC(=O)CCCCCCC(=O)NO)cc32)[nH]1	407 nM
COc1ccc(-c2ccc(-c3ccc(C(=N)N)s3)s2)cc1	188 nM
Cc1cc(C)c(NC(=O)c2sc3nc4c(cc3c2N)CN(Cc2ccccc2)CC4)c(C)c1	3900 nM

Problem: Which GI50 reading was recorded for the compound `O[C@H](c1cc(C(F)(F)F)nc2c(C(F)(F)F)cccc12)[C@@H]1CCCCN1` ?
Solution: 5900 nM

###

System: DU-145 prostate
Experiment: NCI tumour cell line growth inhibition, 48 h
Recorded log10(TGI) by entry
The base-10 logarithm of TGI, taken with TGI in µM, is what appears here.

# count of solved cases: 6
CCN1CCC(O)(/C=C/c2ccc(C)cc2)C(C(=O)/C=C/c2ccc(C)cc2)C1 (stereo not drawn)	1.40
CNC(=S)N=Nc1c(O)n(CN2CCOCC2)c2ccc([N+](=O)[O-])cc12	1.44
O=C1c2cccc3cccc(c23)C(=O)N1CCCNCCCNCCCCNCCCNCCCN1C(=O)c2cccc3cccc(c23)C1=O	1.15
C=C1C(=O)O[C@H]2[C@H]1CC/C(COC(=O)/C=C\C(=O)NCc1ccc(Cn3c(=O)sn(CCCC)c3=O)cc1)=C\CC[C@@]1(C)O[C@@H]21	0.33
CN1C(=O)c2ccccc2OC12C=Cc1ccc(O)cc1O2 (stereo not drawn)	1.84
CC1CC[C@@]2(OC1)OC1C[C@H]3[C@@H]4CC[C@H]5CC(OC6OC(CO)C(O)C(OC7OC(CO)C(OC8OC(CO)C(O)C(OC9OC(CO)C(O)C(O)C9O)C8OC8OC(CO)C(O)C(O)C8O)C(O)C7O)C6O)[C@H](O)CC5(C)[C@H]4CCC3(C)C1[C@@H]2C (stereo partly drawn)	1.08

Problem: Test system DU-145 prostate; read-out log10(TGI); what value for `O=C(/C=C/c1ccc(OCc2cccc(Cl)c2)cc1)NO` ?
Solution: 1.61

Problem: Test system DU-145 prostate; read-out log10(TGI); what value for `CCOC(=O)/C=C(/C)Sc1cc(O)c2ccccc2c1O` ?
Solution: 0.54

Problem: Test system DU-145 prostate; read-out log10(TGI); what value for N#CC1=C(N)Oc2cc(O)ccc2C1c1cccc2ccccc12 (stereo not drawn) ?
Solution: 1.47

###

Recorded TGI by entry
Test system: HOP-62 NSCLC
Test: NCI tumour cell line growth inhibition, 48 h
Give just the numeric value; µM need not be written.

O=C(O)c1nc2ccc(C(F)(F)F)cc2nc1NCc1ccc(F)cc1	46.1

--- query ---
Problem: Which TGI reading was recorded for the compound `Cc1ccccc1N/C(=C(/C(Cl)=C(Cl)Cl)[N+](=O)[O-])n1nnc2ccccc21` ?
Solution: 30.6

###

Recorded log10(TGI) by entry
Test system: U251 CNS
Assay: NCI tumour cell line growth inhibition, 48 h
The base-10 logarithm of TGI, taken with TGI in µM, is what appears here.

# count of solved cases: 5
CN1C(=O)/C(=C/c2c(Cl)n(C)c3ccccc23)c2ccccc21	0.50
CC(C)N(C(=O)C1(O)c2ccccc2C=Cc2ccccc21)C(C)C	1.48
CCCCCOc1ccc(/C=N/Nc2cc(C)nc3ccc(Br)cc23)cc1	0.53
CN(C)c1ccc(/C=N\NC(=O)Nc2cccc3ccccc23)cc1	1.60
CN(CCO)c1ccc(N2Cc3ccccc3OC3=C2C(=O)c2c(O)ccc(O)c2C3=O)cn1	-0.09

--- query ---
Problem: Test system U251 CNS; read-out log10(TGI); what value for `CCn1sc2ccccc2c1=O` ?
Solution: 1.21

###

Tested on: MOLT-4 leukemia
Assay: NCI tumour cell line growth inhibition, 48 h
Recorded TGI by entry

CN(C)c1ccc(/C=N\NC(=O)Nc2cccc3ccccc23)cc1	> 100 µM
O=S(=O)(Nc1ccc(F)cc1F)c1ccc(-c2cnc(C3CC3)o2)cc1	> 70.1 µM
O=C(/C=C/c1ccc(OCc2cccc(Cl)c2)cc1)NO	18 µM
C#COc1cccc(Nc2c(C#N)cnc3ncc(NC(=O)CCl)cc23)c1	> 62.5 µM

Problem: Which TGI reading was recorded for the compound CCN1CCC(O)(/C=C/c2ccc(C)cc2)C(C(=O)/C=C/c2ccc(C)cc2)C1 (stereo unspecified) ?
Solution: 4.59 µM

Problem: Which TGI reading was recorded for the compound Cc1c(O)c(OC2OC(CO)C(O)C(O)C2O)cc2c1CC[C@@H]1C2(C)C(=O)C[C@]2(C)[C@@H]([C@@](C)(O)C(=O)CCC(C)(C)O)[C@H](O)C[C@@]12C (stereo partly specified) ?
Solution: > 100 µM

Problem: Which TGI reading was recorded for the compound `COc1ccc(-c2coc3c4c(ccc3c2=O)OCO4)cc1OC` ?
Solution: > 100 µM

Problem: Which TGI reading was recorded for the compound `CC1=NC(=Cc2cc(Br)cc(Br)c2)C(=O)N1n1c(-c2ccccc2)nc2ccccc2c1=O` ?
Solution: > 100 µM

Problem: Which TGI reading was recorded for the compound `O=C(O)c1nc2ccc(C(F)(F)F)cc2nc1NCc1ccc(F)cc1` ?
Solution: 33.2 µM

Problem: Which TGI reading was recorded for the compound `CCC(=O)O[C@H]1CC[C@H]2[C@@H]3CCC4=C/C(=N/OC(=O)c5cccc6c(=O)c7ccccc7[nH]c56)CC[C@]4(C)[C@H]3CC[C@]12C` ?
Solution: 53.4 µM

###

Test system: RXF 393 renal
Test: NCI tumour cell line growth inhibition, 48 h; in the data active means GI50 below about 0.43 µM; inactive means the rest
Entry note: the call must match one of active, inactive

Record excerpt, results attached:
CN(CCO)c1ccc(N2Cc3ccccc3OC3=C2C(=O)c2c(O)ccc(O)c2C3=O)cn1	active
CC1=C(C(=O)Nc2ccc(Cl)c(Cl)c2)C(c2cccc(Oc3ccccc3)c2)NC(=O)N1 (centres undefined)	inactive
CCN(Cc1ccccc1C)c1ccc(CO)c(Cl)c1	inactive

Problem: So what was the verdict on `COc1ccc(CCNC(=O)c2ccc(NC3=C(Cl)C(=O)N(Cc4ccccc4)C3=O)cc2)cc1OC` in this test?
Solution: inactive

Problem: So what was the verdict on `OCCCNc1nccc(-c2c(-c3ccc(F)cc3)nn3cc(C(F)(F)F)ccc23)n1` in this test?
Solution: inactive

Problem: So what was the verdict on `NC(=O)OCCn1cc(-c2nc(-c3c[nH]c4ncccc34)cs2)c2ccccc21` in this test?
Solution: inactive

Problem: So what was the verdict on `COc1cc(OC)c(/C=C/c2c3ccccc3cc[n+]2C)c(OC)c1` in this test?
Solution: inactive

Problem: So what was the verdict on `NC(=O)c1cc(S(=O)(=O)Nc2nnc(-c3ccccc3)c(-c3ccccc3)n2)c(SCc2ccccc2)cc1Cl` in this test?
Solution: inactive

Problem: So what was the verdict on `O=C(Nc1ccc(-n2ccc3c(NC(=O)c4ccccc4)nccc32)cc1)Nc1ccc(Cl)c(Cl)c1` in this test?
Solution: inactive

###

System: UACC-257 melanoma
Assay: NCI tumour cell line growth inhibition, 48 h
Measurement Kind: TGI

# count of solved cases: 6
CCN1CCC(O)(/C=C/c2ccc(C)cc2)C(C(=O)/C=C/c2ccc(C)cc2)C1 (stereo not given)	25.5 µM
O=C1C=CC(=O)c2c1ccc1c3ccccc3n(-c3cccc([N+](=O)[O-])c3)c21	7.38 µM
Cc1ccc(NC(=O)CSc2nnc(-c3ccc(N=Cc4ccc(Cl)cc4)cc3)o2)cc1	> 100 µM
COc1ccc(O)c(C(=O)c2ccc(C(=O)N[C@H]3CCCNC[C@@H]3NC(=O)c3ccncc3)cc2)c1F	> 25 µM
Cc1cn(C2CC(O)C(CO[Si](C)(C)C(C)(C)C)OC2OC(C)C)c(=O)[nH]c1=O (stereo not given)	> 100 µM
O=C1NP23(OCCO2)Oc2ccccc2C3(C(F)(F)F)O1 (stereo not given)	> 100 µM

Problem: Test system UACC-257 melanoma; read-out TGI; what value for `COc1ccc(-c2csc(Cc3nc4ccccc4c(=O)n3-c3ccc(Cl)cc3)n2)cc1` ?
Solution: > 100 µM

Problem: Test system UACC-257 melanoma; read-out TGI; what value for `CCOC(=O)c1c(NC(=O)c2cccc(C(F)(F)F)c2)sc2c(CN(C)C)c(O)ccc12` ?
Solution: 3.31 µM

Problem: Test system UACC-257 melanoma; read-out TGI; what value for `Cc1cc(C)c(C(=O)c2nnc3ccccc3c2N)c(C)c1` ?
Solution: > 100 µM

###

Test system: HOP-62 NSCLC
Test: NCI tumour cell line growth inhibition, 48 h; in the data active means GI50 below about 0.43 µM; inactive means the rest
Entry note: the call must match one of 1 = active, 0 = inactive

CN1C(=O)/C(=C/c2c(Cl)n(C)c3ccccc23)c2ccccc21	0
COc1cc2c(c(OC)c1OC)-c1ncc3cc4c(cc3c1C2)OCO4	0
COc1ccc(-c2ccc(-c3ccc(C(=N)N)s3)s2)cc1	1
CC(C)(S)C(N)C(=O)O (stereo unspecified)	0
CN(CCO)c1ccc(N2Cc3ccccc3OC3=C2C(=O)c2c(O)ccc(O)c2C3=O)cn1	0

Problem: So what was the verdict on `C1=C\COCc2cc(ccc2OCCN2CCCC2)Nc2nccc(n2)-c2cccc(c2)COC/1` in this test?
Solution: 0

Problem: So what was the verdict on `COc1c[c]([Hg][O]C(C)=O)c(OC)c(NC(=O)CC(C)=O)[c]1[Hg][O]C(C)=O` in this test?
Solution: 0

Problem: So what was the verdict on `O=C(Nc1ccc(-n2ccc3c(NC(=O)c4ccccc4)nccc32)cc1)Nc1ccc(Cl)c(Cl)c1` in this test?
Solution: 0

Problem: So what was the verdict on COCC1(CO)C(=O)C2CCN1CC2 (stereo unspecified) in this test?
Solution: 0

Problem: So what was the verdict on `CCN(Cc1ccccc1C)c1ccc(CO)c(Cl)c1` in this test?
Solution: 0

Problem: So what was the verdict on `CC(=O)Oc1ccccc1C(=O)Nc1ncc([N+](=O)[O-])s1` in this test?
Solution: 0
